Give measured abundance fitness for each item. Keep answers brief.
B1: Max-interacting protein 1, residues 70 to 120; numbered along this chain, P50539 (parent)
chain: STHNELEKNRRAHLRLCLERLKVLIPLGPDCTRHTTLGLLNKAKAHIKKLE

# Variants of: B1
# EXPERIMENT: abundance fitness (aPCA) (normalised: wild type 0, dead -1); higher = more abundant; growth selection in yeast, the domain comes from the species named
# TEST_SETTINGS: Homo sapiens

Here are 3 variants together with their reported answers.
ENTRY_SEQUENCE: STHNELEKNRRAHLRLCLERLKVLIPLGPDCTRHTTHGLLNKAKAHIKKLE [L37H]
abundance fitness: -0.399
//
ENTRY_SEQUENCE: STHNELEKNRRAHLRLCLERLKVLIPLGPDCTRHTTLGLLNKAKANIKKLE [H46N]
abundance fitness: -0.394
//
ENTRY_SEQUENCE: STHNELEKNRRAHLRLCLERLKVLIPLGPDCNRHTTLGLLNKAKAHIKKLE [T32N]
abundance fitness: -0.389

Moving on to the next variant.
Request: Item STHVELEKNRRAHLRLCLERLKVLIPLGPDCTRHTTLGLLNKAKAHIKKLE [N4V] has what recorded abundance fitness?
Response: -0.404
